The reported measurements were obtained from the supplement of paper PMC10567573.

B1: SOAT1 (parent)
chain: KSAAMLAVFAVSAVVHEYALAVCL

variants of: B1; assay: protein stability index of a GFP-peptide fusion (GPS, HEK-293T) (PSI 1-6); higher = more stable; conditions: c terminus: a fixed tail appended;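 also: lentivirally expressed fusions sorted by FACS into six bins by GFP to DsRed ratio, PSI derived from sequencing read proportions per bin multiplied by bin number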
Lab note: compare protein stability index against 3. Equal or greater, write Met. Smaller, write Not met.

Previously resolved entries follow.
[[record]]
change = "V8Y"
group = "Met"

[[record]]
change = "A7T"
group = "Met"

[[record]]
change = "V15G"
group = "Not met"


Enquiry: API: above_or_equal(metric=protein stability index, cutoff=3) for item L24I
Return: Not met

Enquiry: API: above_or_equal(metric=protein stability index, cutoff=3) for item L6K
Return: Not met

Enquiry: API: above_or_equal(metric=protein stability index, cutoff=3) for item A10H
Return: Met

Enquiry: API: above_or_equal(metric=protein stability index, cutoff=3) for item M5S
Return: Met

Enquiry: API: above_or_equal(metric=protein stability index, cutoff=3) for item K1E
Return: Met
